Tested on: MDA-MB-231
protocol_summary: Antiproliferative activity against human MDA-MB-231 cells assessed as inhibition of cell growth incubated for 72 hrs by SRB method
Format: functional, cell-based
condition_label: MDA-MB-231, 72 h
reported_metric: IC50 (µM)
Write down the numeric answer in µM and omit the unit.

Query: Data request, read-out IC50, for COc1ccccc1NC(=O)N1CCc2c(sc(NC(=O)c3ccn(C)n3)c2C#N)C1
Response: 5.55

Query: Data request, read-out IC50, for COc1ccccc1NC(=O)N1CCc2c(sc(NC(=O)c3cccc(Cl)c3)c2C#N)C1
Response: 0.91

Query: Data request, read-out IC50, for COc1ccccc1NC(=O)C1CCc2c(sc(NC(=O)c3cnn(C)c3)c2C#N)C1 (stereo not given)
Response: 12.3

Query: Data request, read-out IC50, for COc1ccccc1NC(=O)N1CCc2c(sc(NC(=O)c3cn(C)cn3)c2C#N)C1
Response: 3.76
